biological target: Ubiquitin carboxyl-terminal hydrolase 8 (Homo sapiens) (UniProt P40818); experiment: Inhibition of N-terminal His-6 tagged USP8 (734 to 1110 residues) (unknown origin) expressed in Escherichia coli BL21 (DE3) cells at 100 nM measured after 3 hrs by fluorescence based Plate reader method relative to control; conditions: values are per cent of control
Sequence (P40818 whole entry, the tested form may be a part): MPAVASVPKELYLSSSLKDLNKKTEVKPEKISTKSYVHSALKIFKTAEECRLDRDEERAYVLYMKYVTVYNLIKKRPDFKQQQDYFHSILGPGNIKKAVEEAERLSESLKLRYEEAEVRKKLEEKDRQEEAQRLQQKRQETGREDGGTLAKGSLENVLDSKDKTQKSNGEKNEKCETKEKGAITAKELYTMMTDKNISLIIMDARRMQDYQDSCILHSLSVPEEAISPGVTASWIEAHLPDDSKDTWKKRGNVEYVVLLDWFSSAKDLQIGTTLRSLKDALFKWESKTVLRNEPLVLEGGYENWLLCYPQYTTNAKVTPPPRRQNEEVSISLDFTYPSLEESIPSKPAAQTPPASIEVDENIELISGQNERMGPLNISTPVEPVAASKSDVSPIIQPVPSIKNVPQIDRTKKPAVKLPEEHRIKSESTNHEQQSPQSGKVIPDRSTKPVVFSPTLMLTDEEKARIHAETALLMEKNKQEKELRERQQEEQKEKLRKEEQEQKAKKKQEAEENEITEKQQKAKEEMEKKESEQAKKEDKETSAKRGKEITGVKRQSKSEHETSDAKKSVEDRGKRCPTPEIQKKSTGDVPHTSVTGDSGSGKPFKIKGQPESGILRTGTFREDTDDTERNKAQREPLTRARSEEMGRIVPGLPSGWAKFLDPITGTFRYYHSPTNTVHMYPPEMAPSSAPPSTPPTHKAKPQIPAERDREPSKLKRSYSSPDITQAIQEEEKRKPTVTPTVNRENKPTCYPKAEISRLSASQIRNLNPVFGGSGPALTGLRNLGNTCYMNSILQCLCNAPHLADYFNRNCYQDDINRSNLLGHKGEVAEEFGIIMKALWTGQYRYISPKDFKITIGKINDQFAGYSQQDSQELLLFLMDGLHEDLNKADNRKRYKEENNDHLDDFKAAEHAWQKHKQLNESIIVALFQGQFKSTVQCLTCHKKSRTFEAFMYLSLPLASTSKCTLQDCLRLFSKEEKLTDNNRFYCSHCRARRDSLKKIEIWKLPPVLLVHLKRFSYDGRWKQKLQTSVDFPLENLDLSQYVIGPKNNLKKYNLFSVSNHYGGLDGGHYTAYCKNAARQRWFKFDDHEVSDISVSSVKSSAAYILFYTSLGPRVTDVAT
Each record is given fulfilled if its reported residual activity is strictly below 30%. Records at or above 30% are given not fulfilled.

SMILES NOTATION: O=C1c2ccccc2C(=O)c2oc(-c3c(F)ccc(F)c3Cl)nc21
ASSIGNED LABEL: fulfilled
//
SMILES NOTATION: CN1CCN(CCOc2ccc(F)c(-c3nc4c(o3)C(=O)c3ccccc3C4=O)c2Cl)CC1
ASSIGNED LABEL: fulfilled
//
SMILES NOTATION: O=C1c2ccccc2C(=O)c2oc(-c3ccccc3F)nc21
ASSIGNED LABEL: fulfilled
//
SMILES NOTATION: COc1cc(-c2nc3c(o2)C(=O)c2ccccc2C3=O)ccc1C
ASSIGNED LABEL: not fulfilled
//
SMILES NOTATION: COc1cc(OC)cc(-c2nc3c(o2)C(=O)c2ccccc2C3=O)c1
ASSIGNED LABEL: not fulfilled

# next molecule below
Ask: Below 30% on residual activity? Entry Cc1cccc(-c2nc3c(o2)C(=O)c2ccccc2C3=O)c1
Result: not fulfilled

###

target: UniProtKB Q9P275
Sequence (Q9P275 whole entry): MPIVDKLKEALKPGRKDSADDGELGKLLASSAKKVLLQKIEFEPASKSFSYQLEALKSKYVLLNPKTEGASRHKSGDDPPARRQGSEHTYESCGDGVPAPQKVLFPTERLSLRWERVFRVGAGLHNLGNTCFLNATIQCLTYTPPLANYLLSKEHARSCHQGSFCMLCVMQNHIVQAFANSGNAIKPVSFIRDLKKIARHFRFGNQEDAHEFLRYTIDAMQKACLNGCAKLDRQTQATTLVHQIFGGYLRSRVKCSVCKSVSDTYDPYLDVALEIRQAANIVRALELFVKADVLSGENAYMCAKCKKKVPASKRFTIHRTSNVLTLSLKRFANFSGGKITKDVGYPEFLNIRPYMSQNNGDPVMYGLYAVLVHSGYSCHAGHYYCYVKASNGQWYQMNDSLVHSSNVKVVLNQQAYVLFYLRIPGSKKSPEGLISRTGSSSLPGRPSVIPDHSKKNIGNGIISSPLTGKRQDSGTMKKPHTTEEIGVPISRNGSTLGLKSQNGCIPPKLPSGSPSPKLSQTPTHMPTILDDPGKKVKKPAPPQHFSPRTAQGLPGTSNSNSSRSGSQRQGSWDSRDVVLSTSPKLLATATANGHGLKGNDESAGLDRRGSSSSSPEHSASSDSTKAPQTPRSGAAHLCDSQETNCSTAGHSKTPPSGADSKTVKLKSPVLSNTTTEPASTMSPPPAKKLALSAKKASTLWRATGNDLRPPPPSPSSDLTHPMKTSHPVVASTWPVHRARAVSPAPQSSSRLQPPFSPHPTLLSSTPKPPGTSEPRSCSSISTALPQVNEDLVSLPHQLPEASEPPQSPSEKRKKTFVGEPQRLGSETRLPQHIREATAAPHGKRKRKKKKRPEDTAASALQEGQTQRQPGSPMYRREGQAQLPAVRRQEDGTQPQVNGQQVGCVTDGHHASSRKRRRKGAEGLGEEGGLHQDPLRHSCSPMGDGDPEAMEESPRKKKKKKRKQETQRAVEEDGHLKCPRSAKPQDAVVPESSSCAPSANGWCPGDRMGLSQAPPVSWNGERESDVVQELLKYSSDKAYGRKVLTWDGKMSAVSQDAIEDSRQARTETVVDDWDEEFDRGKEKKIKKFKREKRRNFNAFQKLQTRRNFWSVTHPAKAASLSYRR
ENDPOINT LABEL: pIC50
// pIC50: -log10(molar conc.)

Ask: Query pIC50 on UniProtKB Q9P275 for CN1CC[C@@H](Oc2ccc(Cl)c(-c3nc4c(o3)C(=O)c3ccccc3C4=O)c2F)C1
Result: 5.14

###

Below is a list of entries, each paired with its recorded residual activity value.
biological target: Ubiquitin thioesterase OTUB1 (Homo sapiens, UniProt Q96FW1); assay: Inhibition of N-terminal His-6 tagged OTUB1 (40 to 271 residues) (unknown origin) expressed in Escherichia coli BL21 (DE3) cells at 100 nM using Ub-Rho measured after 0.5 to 3 hrs by fluorescence based Plate reader method relative to control; details: time 0.5-3 hrs, values are per cent of control
Sequence (Q96FW1 whole entry, the tested form may be a part): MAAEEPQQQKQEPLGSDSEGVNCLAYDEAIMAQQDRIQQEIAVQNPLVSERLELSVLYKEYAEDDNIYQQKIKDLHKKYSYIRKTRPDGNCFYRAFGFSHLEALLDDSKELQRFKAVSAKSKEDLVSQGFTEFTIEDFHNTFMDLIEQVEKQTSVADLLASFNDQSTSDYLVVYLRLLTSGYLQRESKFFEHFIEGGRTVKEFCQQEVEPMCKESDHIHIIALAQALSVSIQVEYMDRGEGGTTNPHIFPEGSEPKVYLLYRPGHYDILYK
Provide the reading as a plain figure in %.

Ask: Which residual activity value belongs to O=C1c2ccccc2C(=O)c2oc(-c3ccccc3F)nc21 ?
Result: 27.3

Ask: Now the compound CN1CC[C@@H](Oc2ccc(-c3nc4c(o3)C(=O)c3ccccc3C4=O)c(C(F)(F)F)c2)C1
Result: 42.4

Ask: Now the compound O=C1c2ccccc2C(=O)c2oc(-c3c(F)ccc(F)c3F)nc21
Result: 15.6

Ask: Now the compound CN1CC[C@@H](Oc2ccc(Cl)c(-c3nc4c(o3)C(=O)c3ccccc3C4=O)c2)C1
Result: 13.7

###

Below is a list of entries, each paired with its recorded residual activity value.
target: Ubiquitin carboxyl-terminal hydrolase 8 (Homo sapiens) (UniProt P40818); experiment: Inhibition of N-terminal His-6 tagged USP8 (734 to 1110 residues) (unknown origin) expressed in Escherichia coli BL21 (DE3) cells at 100 nM measured after 3 hrs by fluorescence based Plate reader method relative to control; details: values are per cent of control
Provide the reading as a plain figure in %.

Illustrative cases are given below, each with its answer.
SMILES NOTATION: COc1ccccc1-c1nc2c(o1)C(=O)c1ccccc1C2=O
TESTED TARGET: Ubiquitin carboxyl-terminal hydrolase 8 (Homo sapiens) (UniProt P40818)
residual activity, %: 21.4
//
SMILES NOTATION: O=C1c2ccccc2C(=O)c2oc(-c3c(F)cccc3Cl)nc21
TESTED TARGET: Ubiquitin carboxyl-terminal hydrolase 8 (Homo sapiens) (UniProt P40818)
residual activity, %: 26.5

Ask: Which residual activity value belongs to CN1CC[C@@H](Oc2cc(Cl)cc(-c3nc4c(o3)C(=O)c3ccccc3C4=O)c2)C1 ?
Result: 34.2
